tested on: ATP; experiment: switch fluorescence ratio, 500 uM ATP over buffer (Cy3 cluster intensity, sum of 5 cycles each) (fold (ratio)); higher = stronger signal-on switching upon ATP binding; sequences stand for … in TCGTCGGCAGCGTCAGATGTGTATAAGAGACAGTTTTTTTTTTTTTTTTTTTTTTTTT…TC; conditions: aptamer strand: ATP DNA aptamer (quencher-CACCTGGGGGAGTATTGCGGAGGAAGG + anchor), 100 nM annealed; ATP concentration: 500 uM;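 also: ATP exposure 15 min at 22 °C before imaging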
What switch fluorescence ratio was measured for each of the following?
Give bare numbers.

Sample records with switch fluorescence ratio:
TCACGGTAGG
0.999
GATATTTGA
0.994
TATGAATGTG
0.991

Hey, can you go through the list below and give me switch fluorescence ratio for every item?
1. TTAGGATTGG
2. GGGTACTTGG
3. ACAAGGGGCA

**A:**
0.986
0.99
1.01

###

Would you kindly list switch fluorescence ratio for each of these sequences?
test system: ATP; assay: switch fluorescence ratio, 500 uM ATP over buffer (Cy3 cluster intensity, sum of 5 cycles each) (fold (ratio)); higher = stronger signal-on switching upon ATP binding; sequences stand for … in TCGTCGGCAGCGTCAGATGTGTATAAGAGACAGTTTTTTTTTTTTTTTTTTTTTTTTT…TC; settings: aptamer strand: ATP DNA aptamer (quencher-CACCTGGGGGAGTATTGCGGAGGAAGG + anchor), 100 nM annealed; ATP concentration: 500 uM;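 also: ATP exposure 15 min at 22 °C before imaging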

# example entries with known answers
ATGGCTTGGA
0.996
CTGTAACGTT
1.01
TTGGATGAGC
1.03
TAAGAGGTTT
0.995
CAAAAGATTC
1.05

For each of the items listed, what is its switch fluorescence ratio?
1. TGAGTGGCTC
2. GGTTGTTGTT

**A:**
0.979
0.978

###

Give measured switch fluorescence ratio for each item. Keep answers brief.
test system: ATP; experiment: switch fluorescence ratio, 500 uM ATP over buffer (Cy3 cluster intensity, sum of 5 cycles each) (fold (ratio)); higher = stronger signal-on switching upon ATP binding; sequences stand for … in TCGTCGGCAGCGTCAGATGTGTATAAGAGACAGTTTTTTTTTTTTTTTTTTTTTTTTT…TC; details: aptamer strand: ATP DNA aptamer (quencher-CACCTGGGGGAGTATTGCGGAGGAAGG + anchor), 100 nM annealed; ATP concentration: 500 uM;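 also: ATP exposure 15 min at 22 °C before imaging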
One number for each entry.

Worked examples, 2 sequences total:
GGGTGCTGCT
0.954
AGAGCAGCTG
0.998

For each of the items listed, what is its switch fluorescence ratio?
1. TGAGGTCAAA
2. TCGGTTTGCG

**A:**
1: 1.07; 2: 1.01

Batch lookup, switch fluorescence ratio per entry.
1. TGCTTTTACG
2. TGAATGATAG
3. AGGGCTGCAT
4. GAGGCGGCTG
5. AGGTCTGAAA
6. ATAATCAAGG
7. ATCGGGTTTG

**A:**
1: 1.04; 2: 0.983; 3: 0.987; 4: 0.994; 5: 1.04; 6: 1.01; 7: 0.977

###

Can you tell me switch fluorescence ratio for the items I'm about to list?
test system: ATP; assay: switch fluorescence ratio, 500 uM ATP over buffer (Cy3 cluster intensity, sum of 5 cycles each) (fold (ratio)); higher = stronger signal-on switching upon ATP binding; sequences stand for … in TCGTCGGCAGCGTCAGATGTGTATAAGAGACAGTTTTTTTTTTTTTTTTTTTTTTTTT…TC; settings: aptamer strand: ATP DNA aptamer (quencher-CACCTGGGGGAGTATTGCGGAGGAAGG + anchor), 100 nM annealed; ATP concentration: 500 uM;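 also: ATP exposure 15 min at 22 °C before imaging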
Answers are plain numbers.

A selection of reference data follows.
CTCGTTGAAA
0.978
TGTTGGTGGT
0.988
GCTTTCGGGC
1.01
ATTGGTGACG
1.02
GCTGGAGGAC
0.996
TGAGTGTTTT
0.997

# per-item lookup of switch fluorescence ratio; items listed below
1. TTCGGCTTGA
2. GGATGAGCTG
3. TTTTAAGTTT

**A:**
0.994
0.978
0.978

###

system: ATP; assay: switch fluorescence ratio, 500 uM ATP over buffer (Cy3 cluster intensity, sum of 5 cycles each) (fold (ratio)); higher = stronger signal-on switching upon ATP binding; sequences stand for … in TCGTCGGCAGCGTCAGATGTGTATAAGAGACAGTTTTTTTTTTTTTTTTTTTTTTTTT…TC; settings: aptamer strand: ATP DNA aptamer (quencher-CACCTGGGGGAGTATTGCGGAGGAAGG + anchor), 100 nM annealed; ATP concentration: 500 uM;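 also: ATP exposure 15 min at 22 °C before imaging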
# label = satisfied if switch fluorescence ratio >= 1 else not satisfied

Solved entries (count: 6):
TTTCGTCATG
satisfied
GCTGAGGGGA
satisfied
CCGTTTAAAA
satisfied
TTACGGTAAT
satisfied
ATTCTGTGTG
not satisfied
TGTGGGTTGG
not satisfied

**Q:** Hi, just wondering whether GCTGCTGGGC shows switch fluorescence ratio of 1 or higher.
**A:** not satisfied

###

For each record, write down the corresponding switch fluorescence ratio.
system: ATP; test: switch fluorescence ratio, 500 uM ATP over buffer (Cy3 cluster intensity, sum of 5 cycles each) (fold (ratio)); higher = stronger signal-on switching upon ATP binding; sequences stand for … in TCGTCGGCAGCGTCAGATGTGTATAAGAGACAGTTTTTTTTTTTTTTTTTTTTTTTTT…TC; conditions: aptamer strand: ATP DNA aptamer (quencher-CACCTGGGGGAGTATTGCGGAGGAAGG + anchor), 100 nM annealed; ATP concentration: 500 uM;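 also: ATP exposure 15 min at 22 °C before imaging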

GGGGATTATA
1.01
TGTGTGTTTT
1.01
ACGTCGCGGG
0.988
CGGTGGCATA
1.04

Go through the list and state switch fluorescence ratio for each entry.
1. TAGCCTATTG
2. CGTGGGGGTC
3. GGGTGAGCTG
4. TACTGCAGAT
5. ATATTATTGA
6. CAGAGACTTT
7. GTATTAGCAG
8. GTAGGCAAAT

**A:**
1. 0.979
2. 1.01
3. 0.98
4. 1
5. 0.982
6. 0.994
7. 1.03
8. 1.03

For each of the items listed, what is its switch fluorescence ratio?
1. AATTGTTAAC
2. ATCTGTGAAC
3. AAAAAGTCGC
4. GGTTTATGAA
5. CCAAAGGGAC
6. TGGCAGGGTC
7. TTTTTCATGG
8. GGTCCCCAAT

**A:**
0.995
1.05
0.961
0.999
1.09
0.977
1
1

For each listed entry, give its switch fluorescence ratio.
1. TTAGACGGGT
2. CTACTGTGGG

**A:**
[0.982, 0.965]

###

test system: ATP; test: switch fluorescence ratio, 500 uM ATP over buffer (Cy3 cluster intensity, sum of 5 cycles each) (fold (ratio)); higher = stronger signal-on switching upon ATP binding; sequences stand for … in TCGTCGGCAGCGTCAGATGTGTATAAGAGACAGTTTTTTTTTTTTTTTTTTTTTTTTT…TC; conditions: aptamer strand: ATP DNA aptamer (quencher-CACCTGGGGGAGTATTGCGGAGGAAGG + anchor), 100 nM annealed; ATP concentration: 500 uM;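 also: ATP exposure 15 min at 22 °C before imaging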
For each entry below, report its switch fluorescence ratio value.

Worked examples follow.
ACTTGGTCGT
1.04
ACAGGGCGGG
1.01
TTTTATAGAA
1.01
CAAGCGATGG
1.63

Dear reader, for each entry below, please note its switch fluorescence ratio.
1. AGGATTGAGT
2. ACACGGGGAA
3. AGGGAGCAGA
4. TTATTTCGCG
5. CAGGTCTTGC
6. ATAGGGTGCG
7. AGTAGTTATA

**A:**
[1.02, 1.02, 0.995, 0.986, 1, 1, 1.03]

Provide the reported switch fluorescence ratio of each entry below, same order.
1. CAATTAGGGA
2. ATGTTACCGG
3. CATTCCGTTC
4. ATGAAAACGG

**A:**
0.985
1.05
1.42
1

Go through the items and report each one's switch fluorescence ratio.
1. TGTAAAGGCG
2. GGATATGGGT
3. GAGTTAAGGG
4. GGGAAATAAA
5. AGCAGGGGGG

**A:**
0.953
0.966
1.01
0.988
1.06

Count: 3. Required value per item: switch fluorescence ratio.
1. TATGTACCTT
2. TAACGGCTGC
3. GAAACCGTGG

**A:**
1.18
1
1.06

###

system: ATP; assay: switch fluorescence ratio, 500 uM ATP over buffer (Cy3 cluster intensity, sum of 5 cycles each) (fold (ratio)); higher = stronger signal-on switching upon ATP binding; sequences stand for … in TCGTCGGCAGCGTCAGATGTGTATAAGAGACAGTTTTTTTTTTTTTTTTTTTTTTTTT…TC; conditions: aptamer strand: ATP DNA aptamer (quencher-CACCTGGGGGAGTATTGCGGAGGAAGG + anchor), 100 nM annealed; ATP concentration: 500 uM;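 also: ATP exposure 15 min at 22 °C before imaging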
assayReadout: switch fluorescence ratio
Give bare numbers.

GAACTTCTGG
0.985
TAACCGGATT
1.1
TGCGCCATTT
1.13
CTTTGCTAAC
2.21
TATAACATG
1.01

Dear reader, for each entry below, please note its switch fluorescence ratio.
1. GGATAGGACA
2. TATTATAGGA
3. CAGCTCATGC
4. GAGCCACCAC
5. GGCCGGCAGG
6. TTATCAAAGG
7. TATTTTAGTG
8. GCATTGTACG

**A:**
1
0.982
1.08
1.05
0.972
0.986
0.996
0.991

I'm hoping you can list switch fluorescence ratio for every sequence here, please.
1. CCTGGATTGC
2. TAGGTGGCGC
3. TGGGGCGCCG
4. GCATGCTGGT
5. AGATTTTTAT
6. CCATCGCCGG
7. ATTTTGATAA

**A:**
1: 1.24; 2: 1.08; 3: 1.13; 4: 1.01; 5: 0.983; 6: 1; 7: 1.02

Batch request: switch fluorescence ratio per item, same order as input.
1. TACGATGTGT
2. TTTTTTAAGA
3. AGATTACTGC
4. GATTGAAAGC
5. CGCAGGAAAG
6. AGAGCGGGGG

**A:**
1.03
1.01
1.01
0.962
0.973
1.02

Please give switch fluorescence ratio for each item listed below.
1. GGTCTGGGAG
2. TTGATAGGTC
3. AAACGTAATA

**A:**
1: 1; 2: 1.01; 3: 1.31
